method: qHTS assay to identify small molecule antagonists of the estrogen related receptor signaling pathway with the pleiotropic PPARgamma coactivator (PGC) from Tox21 10K library - cell viability counter screen (AID 1224840); also: nearly all actives have a fitted effect of over 40% in size
experimental-parameters: PGC/ERR reporter cells viability, CellTiter-Fluor, 17.5 h; series mostly up to 92.4 µM
Inconclusive results are not listed. The source made the active and inactive calls. Calls follow the shape of the dose curve; as a rule, active = well fitted cell-killing curve with a large enough effect in the repeat runs (not every such curve was filed as active); inconclusive = weak or mixed curves, or effect the other way; inactive = no such curve, though single readings can be large or run the other way.
Outcome codes: active, inactive

| compound | class-name |
| --- | --- |
| O=c1cc(-c2ccccc2)oc2ccc3ccccc3c12 | inactive |
| O=C(O)C[C@H](NC(=O)OCc1ccccc1)C(=O)O | inactive |
| CCCCCC#CC(=O)OC | inactive |
| CCCCCCNC(=O)n1cc(F)c(=O)[nH]c1=O | inactive |
| C[C@@H](O)[C@H]1C(=O)N2C(C(=O)O)=C([C@H]3CCCO3)S[C@H]12 | inactive |
| CC1=C(Br)C(=O)C(Br)=C/C1=C(/c1ccccc1S(=O)(=O)O)c1cc(Br)c(O)c(Br)c1C | active |
| C[C@]1(Cn2ccnn2)[C@H](C(=O)O)N2C(=O)C[C@H]2S1(=O)=O | inactive |
| C/C=C\C/C=C/CCCCCCCCOC(C)=O | inactive |
| C/C=C(/C(=C/C)c1ccc(O)cc1)c1ccc(O)cc1 | inactive |
| COC(=O)C1=C(C)NC(C)=C(C(=O)O[C@@H]2CCCN(Cc3ccccc3)C2)[C@@H]1c1cccc([N+](=O)[O-])c1 | inactive |
| C[C@@H](CN(C)C)CN1c2ccccc2Sc2ccccc21 | inactive |
| Cc1ccc(Cl)c(Nc2ccccc2C(=O)O)c1Cl | inactive |
| OC1(c2ccccc2)CCNCC1 | inactive |
| CCOC(C)=O | inactive |
| CC1(C)[C@@H](OC(=O)CCC(=O)O)CC[C@]2(C)[C@H]3C(=O)C=C4[C@@H]5C[C@@](C)(C(=O)O)CC[C@]5(C)CC[C@@]4(C)[C@]3(C)CC[C@@H]12 | inactive |
| C=C(C)C(=O)OCCCCCCCCCCCCC | inactive |
| CN(C(=O)CN(CCO)CC(=O)N(C)C(C)(C)Cc1ccccc1)C(C)(C)Cc1ccccc1 | inactive |
| Cc1cccc(N(C)C(=S)Oc2ccc3c(c2)CCC3)c1 | inactive |
| CCCCCCCCC(CCCCCC)C(=O)O (stereo not given) | inactive |
| COc1cc(C(=O)NCCCCCC(=O)O)cc(OC)c1OC | inactive |

----------
method: qHTS RealTime-Glo MT Cell Viability Assay in HEK293 cells - 32 hour (AID 1224868); also: nearly all actives have a fitted effect of over 50% in size
experimental-parameters: RealTime-Glo luminescence; series mostly up to 76.8 µM
Results filed as inconclusive are left out. Active and inactive are the calls of the source. The call rests on the fitted dose curve; in most records, active means well fitted cell-killing curve with a large enough effect in the repeat runs; inconclusive means weak or mixed curves, or effect the other way; inactive means flat fitted curve, though single readings scatter.
Outcome codes: 1.0 for active, 0.0 for inactive

| compound | class-name |
| --- | --- |
| Nc1ncnc2c1ncn2[C@H]1CC[C@@H](CO)O1 | 0.0 |
| O=C(O)CCc1nc(-c2ccccc2)c(-c2ccccc2)o1 | 0.0 |
| Cc1ccco1 | 0.0 |
| CCC(=O)C1CC(C(C)C)CC=C1C (stereo not drawn) | 0.0 |
| COc1ccccc1Oc1c(NS(=O)(=O)c2ccc(C(C)(C)C)cc2)nc(-c2ncccn2)nc1OCCO | 0.0 |
| NC(=O)c1ccncc1 | 0.0 |
| C=C1CCC2CC1C2(C)C (stereo not drawn) | 0.0 |
| CC[C@]1(O)C[C@H]2CN(CCc3c([nH]c4ccccc34)[C@@](C(=O)OC)(c3cc4c(cc3OC)N(C=O)[C@H]3[C@@](O)(C(=O)OC)[C@H](OC(C)=O)[C@]5(CC)C=CCN6CC[C@]43[C@@H]65)C2)C1 | 1.0 |

----------
method: qHTS RealTime-Glo MT Cell Viability Assay in HEK293 cells - 8 hour (AID 1224887); also: nearly all actives have a fitted effect of over 50% in size
experimental-parameters: RealTime-Glo luminescence; series mostly up to 76.8 µM
Results filed as inconclusive are left out. Active and inactive are the calls of the source. Calls come from the whole dose curve; as a rule, active = well fitted cell-killing curve with a large enough effect in the repeat runs; inconclusive = weak or mixed curves, or effect the other way; inactive = flat fitted curve, though single readings scatter.
Outcome codes: active, inactive

| compound | class-name |
| --- | --- |
| O=C(CCc1ccc(O)cc1)c1c(O)cc(O)cc1O | active |
| CCCCN1CCCC1C(=O)Nc1c(C)cc(C)cc1C (centres undefined) | inactive |
| CCCCCCCCCCC(=O)O | inactive |
| O=C(O)CCc1nc(-c2ccccc2)c(-c2ccccc2)o1 | inactive |
| CCC(OCCCOC)OC(C)=O (centres undefined) | inactive |
| Brc1cc(Br)c(Oc2cc(Br)c(Br)cc2Br)cc1Br | inactive |
| CCCCOc1ccc(OCCCN2CCOCC2)cc1 | inactive |
| COc1ccccc1Oc1c(NS(=O)(=O)c2ccc(C(C)(C)C)cc2)nc(-c2ncccn2)nc1OCCO | inactive |
| NNC(=O)CP(=O)(c1ccccc1)c1ccccc1 | inactive |
| O=C1c2ccccc2C(=O)C1(O)O | inactive |
| Cc1ccc(Cl)c(Nc2ccccc2C(=O)O)c1Cl | inactive |
| Oc1ccc(Cl)c2cccnc12 | inactive |
| C[C@]1(Cn2ccnn2)[C@H](C(=O)O)N2C(=O)C[C@H]2S1(=O)=O | inactive |
| NCCNCCO | inactive |
| CC1CC(C)C(=O)C1=O (centres undefined) | inactive |
| O=c1cc(-c2ccccc2)oc2ccc3ccccc3c12 | inactive |
| CC(C)(C)C(=O)C(=O)O | inactive |
| CC(=O)OCC[N+](C)(C)C | inactive |
| CCOC(=O)c1ccc(OCCN2C[C@H](O)[C@@H](O)[C@H](O)[C@H]2CO)cc1 | inactive |

----------
method: qHTS assay for small molecule agonists of the antioxidant response element (ARE) signaling pathway - cell viability counter screen (AID 743203); also: nearly all actives have a fitted effect of over 55% in size
experimental-parameters: ARE-bla HepG2 viability, CellTiter-Glo luminescence, 16 h; series mostly up to 73.3 µM
Results filed as inconclusive are left out. Active and inactive are the calls of the source. The call rests on the fitted dose curve.
Outcome codes: 1 (active), -1 (inactive)

| compound | class-name |
| --- | --- |
| C[C@@H](CN(C)C)CN1c2ccccc2Sc2ccccc21 | -1 |
| Oc1cccc(O)c1O | -1 |
| OC1(c2ccccc2)CCNCC1 | -1 |
| CCOC(=O)c1ccc(I)cc1 | -1 |
| O[C@@H]1CO[C@H]2[C@@H]1OC[C@@H]2O | -1 |
| Nc1cccc2c1CN(C1CCC(=O)NC1=O)C2=O (stereo unspecified) | -1 |
| CC1(C)O[C@@H]2C[C@H]3[C@@H]4C[C@H](F)C5=CC(=O)C=C[C@]5(C)[C@H]4[C@@H](O)C[C@]3(C)[C@]2(C(=O)CO)O1 | -1 |
| CC(=O)N/N=C/c1ccc([N+](=O)[O-])o1 | -1 |
| Cc1cccc(N(C)C(=S)Oc2ccc3c(c2)CCC3)c1 | -1 |
| Cc1cccc(O)c1N | -1 |
| O=C1NC(=O)c2cc([N+](=O)[O-])ccc21 | -1 |
| c1ccc2c(c1)CCc1ccccc1N2 | -1 |
| CN1CCCN=C1COC(=O)C(O)(c1ccccc1)C1CCCCC1 (stereo unspecified) | -1 |
| COC(=O)[C@H]1[C@H]2C[C@@H]3c4[nH]c5cc(OC)ccc5c4CCN3C[C@H]2C[C@@H](OC(=O)/C=C/c2ccc(O)c(OC)c2)[C@@H]1OC | -1 |
| C1COC1 | -1 |
| COc1ccccc1N1CCN(CCCCNC(=O)c2ccc(-c3ccc(C(C)=O)cc3)cc2)CC1 | -1 |
| Cc1ccc2c(Br)cc(Br)c(O)c2n1 | -1 |
| OCCOCC#CCOCCO | -1 |
| CC1(C)[C@H](C(=O)O)N2C(=O)C[C@H]2S1(=O)=O | -1 |
| C/C=C/C=C/C=O | -1 |
| COc1cc(C(=O)NC2CCN(C)CC2)ccc1Nc1ncc2c(n1)N(C1CCCC1)CC(F)(F)C(=O)N2C | 1 |
| C=CC(=O)OCC1CC2CC1C1CCC(COC(=O)C=C)C21 (stereo unspecified) | -1 |
| COc1ccccc1Oc1c(NS(=O)(=O)c2ccc(C(C)(C)C)cc2)nc(-c2ncccn2)nc1OCCO | -1 |
| CCC1CO1 (stereo unspecified) | -1 |
| C/C=C\C/C=C/CCCCCCCCOC(C)=O | -1 |
| CC(=O)[C@H]1[C@H](C#N)C[C@H]2[C@@H]3CC=C4C[C@@H](O)CC[C@]4(C)[C@H]3CC[C@@]21C | -1 |
| CCOC(=O)/C=C/C(=O)OCC | -1 |
| CC(CN(C)C)C(C)(O)Cc1ccc(Cl)cc1 (stereo unspecified) | -1 |
| CC1CC(OC(=O)C(O)c2ccccc2)CC(C)(C)N1C (stereo unspecified) | -1 |
| O=c1cc(-c2ccccc2)oc2cc(O)cc(O)c12 | -1 |
| CC(C)(O)c1ccc(CNC(=O)c2cccnc2Oc2ccc3nonc3c2)cc1 | -1 |
| OCCN1CCN(CCCN2c3ccccc3Sc3ccc(Cl)cc32)CC1 | 1 |
| CCC(OCCCOC)OC(C)=O (stereo unspecified) | -1 |
| Cc1ccc(Cl)c(Nc2ccccc2C(=O)O)c1Cl | -1 |
| CCCCCCCCN | -1 |
| COC(=O)CS | -1 |
| CCCCCCCCCCC(=O)O | -1 |
| CC1CC(C)C(=O)C1=O (stereo unspecified) | -1 |
| C[C@@H](O)[C@H]1C(=O)N2C(C(=O)O)=C([C@H]3CCCO3)S[C@H]12 | -1 |
| CCC1NC(=O)c2cc(S(N)(=O)=O)c(Cl)cc2N1 (stereo unspecified) | -1 |
| OC(CCN1CCCC1)(c1ccccc1)C1CCCCC1 (stereo unspecified) | -1 |
